Examples of molecules with documented Residual activity (%) Polymerase follow.
subject.of.test: RNA-dependent DNA polymerase activity of HIV reverse transcriptase (Human immunodeficiency virus type 1 group M subtype B, UniProt P03366)
Construct: made in house
protocol.description: RNA-dependent DNA polymerase activity assay of HIV reverse transcriptase
Assay type: biochemical, HIV-1
condition.set: 10 μM inhibitor concentration; activity in presence / in absence of analog x 100
Provide a numeric answer, followed by its unit.

Example cases with answers are listed next.
> print(dat)
                                   molecule  reported.result
1  Cc1ccc2nc3c(c([Si](C)(C)C(C)(C)C)c2c1)Cn1c-3cc(C(=O)CCC2CCCCC2)c(C)c1=O              52%
2  CCC(O)c1cc2n(c(=O)c1C)Cc1c-2nc2ccc(OC)cc2c1[Si](C)(C)C(C)(C)C (centres unmarked)              77%
3  CCC(O)c1cc2n(c(=O)c1C)Cc1c-2nc2ccc(C)cc2c1[Si](C)(C)C(C)(C)C (centres unmarked)              94%
4  Cc1c(C(=O)CCC2CCCCC2)cc2n(c1=O)Cc1c-2nc2ccc(F)cc2c1-c1ccccc1              59%
5  COc1ccc2nc3c(c(-c4ccccc4)c2c1)Cn1c-3cc(C(O)C(C)(C)C)c(C)c1=O (centres unmarked)              85%

Field Residual activity (%) Polymerase (entry Cc1ccc2nc3c(c([Si](C)(C)C(C)(C)C)c2c1)Cn1c-3cc(C(O)CCC2CCCCC2)c(C)c1=O (centres unmarked) ) reads 61%

Field Residual activity (%) Polymerase (entry Cc1c(C(=O)C(C)(C)C)cc2n(c1=O)Cc1c-2nc2ccccc2c1-c1ccccc1 ) reads 64%

Field Residual activity (%) Polymerase (entry COc1ccc2nc3c(c([Si](C)(C)C)c2c1)Cn1c-3cc(C(O)CCC2CCCCC2)c(C)c1=O (centres unmarked) ) reads 57%

----------
Examples of molecules with documented Residual activity (%) Polymerase follow.
subject.of.test: RNA-dependent DNA polymerase activity of HIV reverse transcriptase (Human immunodeficiency virus type 1 group M subtype B)
Construct: made in house
protocol.description: RNA-dependent DNA polymerase activity assay of HIV reverse transcriptase
Format: biochemical, HIV-1
condition.set: 10 μM inhibitor concentration; activity in presence / in absence of analog x 100
Number in %, nothing else.

Example cases with answers are listed next.
> print(dat)
                                   molecule  reported.result
1  CCCCCCc1c2c(nc3ccc(C)cc13)-c1cc(C(=O)CC)c(C)c(=O)n1C2               31
2  Cc1c(C(=O)C(C)(C)C)cc2n(c1=O)Cc1c-2nc2ccccc2c1[Si](C)(C)C(C)(C)C               79
3  CCC(O)c1cc2n(c(=O)c1C)Cc1c-2nc2ccc(F)cc2c1[Si](C)(C)C(C)(C)C (stereo not shown)               98

Field Residual activity (%) Polymerase (entry CCC(=O)c1cc2n(c(=O)c1C)Cc1c-2nc2ccc(C)cc2c1[Si](C)(C)C ) reads 93

----------
subject.of.test: RNase H activity of HIV reverse transcriptase (Human immunodeficiency virus type 1 group M subtype B, UniProt P03366)
Construct: 2.5 nM of the p51/p66 RT heterodimer in the assay; made in house
protocol.description: Fluorescence (FRET)-based RNase H assay of HIV reverse transcriptase
Assay type: biochemical, HIV-1
condition.set: 20 μM inhibitor concentration
readout: % inhibition of RNase H at 20 μM (%)
Number in %, nothing else.

Example cases with answers are listed next.
> print(dat)
                                   compound                           readout  reported.result
1  CCCCc1c2c(nc3ccc(OC)cc13)-c1cc(C(O)CCC)c(C)c(=O)n1C2 (stereo not drawn)  % inhibition of RNase H at 20 μM               67
2  CCCc1c2c(nc3ccc(Cl)cc13)-c1cc(C(O)CCC3CCCCC3)c(C)c(=O)n1C2 (stereo not drawn)  % inhibition of RNase H at 20 μM              100
3  Cc1c(C(O)CCC2CCCCC2)cc2n(c1=O)Cc1c-2nc2ccc(Cl)cc2c1-c1ccccc1 (stereo not drawn)  % inhibition of RNase H at 20 μM               90
4  CCCCc1c2c(nc3ccc(C(F)(F)F)cc13)-c1cc(C(O)CC)c(C)c(=O)n1C2 (stereo not drawn)  % inhibition of RNase H at 20 μM               62
5  CCc1ccc2nc3c(c(-c4ccccc4)c2c1)Cn1c-3cc(C(O)CCC2CCCCC2)c(C)c1=O (stereo not drawn)  % inhibition of RNase H at 20 μM               65

Turning to the following compound.
Field % inhibition of RNase H at 20 μM (entry CCCCCc1c2c(nc3ccc(C(F)(F)F)cc13)-c1cc(C(O)C3CCCCC3)c(C)c(=O)n1C2 (stereo not drawn) ) reads 70
